molecular target: Norepinephrine transporter (Rattus norvegicus)
Sequence (Q9WTR4 whole entry): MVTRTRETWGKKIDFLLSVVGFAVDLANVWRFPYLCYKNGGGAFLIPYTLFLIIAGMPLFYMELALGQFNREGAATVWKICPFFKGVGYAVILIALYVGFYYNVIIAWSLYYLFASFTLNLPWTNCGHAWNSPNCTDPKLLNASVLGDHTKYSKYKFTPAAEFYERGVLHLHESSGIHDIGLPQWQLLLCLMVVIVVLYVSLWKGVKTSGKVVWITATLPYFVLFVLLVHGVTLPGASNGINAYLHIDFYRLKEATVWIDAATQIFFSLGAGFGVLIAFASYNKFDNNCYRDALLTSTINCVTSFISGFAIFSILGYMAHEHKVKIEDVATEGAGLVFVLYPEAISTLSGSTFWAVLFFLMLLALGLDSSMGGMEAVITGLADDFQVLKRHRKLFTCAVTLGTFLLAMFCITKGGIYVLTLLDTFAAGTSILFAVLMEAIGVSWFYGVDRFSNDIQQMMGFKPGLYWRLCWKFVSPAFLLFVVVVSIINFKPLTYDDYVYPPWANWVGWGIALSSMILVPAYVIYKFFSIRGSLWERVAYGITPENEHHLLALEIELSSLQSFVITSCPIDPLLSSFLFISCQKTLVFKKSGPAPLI
Could you mark each record fulfilled if its IC50 falls strictly under 2 µM, and not fulfilled if it equals or exceeds it?

Compound | Assigned category
O[C@H]1CN(Cc2ccc(F)cc2)CC[C@H]1CCOC(c1ccccc1)c1ccccc1 (racemic) | not fulfilled
O[C@@H]1CN(Cc2ccc(F)cc2)CC[C@H]1CCOC(c1ccccc1)c1ccccc1 (racemic) | fulfilled
CCC(=O)O[C@@H]1CN(Cc2ccc(F)cc2)CC[C@H]1CCOC(c1ccccc1)c1ccccc1 | not fulfilled
O[C@@H]1CN(Cc2ccc(F)cc2)CC[C@H]1CCOC(c1ccccc1)c1ccccc1 | fulfilled
OC1CN(Cc2ccc(F)cc2)CC[C@@H]1CCOC(c1ccccc1)c1ccccc1 (stereo partly specified) | fulfilled
O=C1CN(Cc2ccc(F)cc2)CC[C@H]1CCOC(c1ccccc1)c1ccccc1 | not fulfilled
